Tested on: Vero E6 infected with SARS-CoV-2
Assay: inhibition of SARS-CoV-2 cytopathic effect; higher = more antiviral protection, active = above 15
Settings: 10000 nM; 48 h
Recorded measurements of inhibition of SARS-CoV-2 cytopathic effect, one per entry
Endpoint name: inhibition of SARS-CoV-2 cytopathic effect (%)

Compound	Result unit	Data value
C1Cc2[nH]nc(-c3nn[nH]n3)c2C1	%	2.43
CCCCCCCCCCCCOS(=O)(=O)O [dodecyl-sulfate]	%	0.47
C[C@@]1(O)[C@H](O)[C@@H](CO)O[C@H]1n1ccc(N)nc1=O	%	-2.07

###

// reported inhibition of SARS-CoV-2 cytopathic effect for each item listed
System: Vero E6 infected with SARS-CoV-2
Assay: inhibition of SARS-CoV-2 cytopathic effect; higher = more antiviral protection, active = above 15
Conditions: 8.33 nM; 48 h
Endpoint name: inhibition of SARS-CoV-2 cytopathic effect (%)

Molecule	Data value
O=c1n(CC2CO2)c(=O)n(CC2CO2)c(=O)n1CC1CO1 (stereo not drawn)	-0.65
CN[C@@H]1[C@H](O)[C@H](NC)[C@H]2O[C@@]3(O)C(=O)C[C@@H](C)O[C@H]3O[C@@H]2[C@H]1O	2
Cn1cc(-c2ccncc2)c(-c2ccc(OCc3ccc4ccccc4n3)cc2)n1	1.25
